Biological target: Claudin 18.2 (CLDN18.2), expressed on CHOS-CLDN 18.2 / HEK293-CLDN 18.2 / HCC827-CLDN 18.2 cells (human, UniProt P56856 1-261)
Experiment: cell ELISA
Form field: EC50 (one value per entry).

binder: QP14511446 (antibody, V domains shown) VH: EVQLVESGGGLVQPGGSLRLSCAASGFTFSSFGMHWVRQAPGKGLEWVAYISSGSNSIYYVDTVKGRFTISRDNAKNSLYLQMNSLRSEDTAVYYCARNAYYGNSFDYWGQGTLVTVSS VL: DIVMTQSPDSLAVSLGERATINCKSSQSLLNSGNQKNYLTWYQQKPGQPPKLLIYWASTRESGVPDRFSGSGSGTDFTLTISSLQAEDVAVYYCQNNYYYPLTFGGGTKVEIK
unitString: µg/mL
EC50: 0.133
//
binder: QP14661460 (antibody, V domains shown) VH: EVQLVQSGAEVKKPGASVKVSCKASGYTFTSYIMHWVKQAPGQGLEWIGYINPYNDGTKYNEKFKGKATLTSDKSTSTVYMELSSLRSEDTAVYCCARLGFTTRNAMDYWGQGTLVTVSS VL: DIVMTQSPDSLAVSLGERATINCKSSQSLLNSGNQKNYLAWYQQKPGQPPKLLIYGASTRESGVPDRFSGSGSGTDFTLTISSLQAEDVAVYYCQNDHSYPFTFGQGTKLEIK
unitString: µg/mL
EC50: 0.105
//
binder: QP14491447 (antibody, V domains shown) VH: EVQLVESGGGLVQPGGSLRLSCAASGFTFSSFGMHWVRQAPGKGLEWVSYISSGSNSIYYVDTVKGRFTISRDNAKNSLYLQMNSLRDEDTAVYYCARNAYYGNSFDYWGQGTLVTVSS VL: DIVMTQSPDSLAVSLGERATISCKSSQSLLNSGNQKNYLTWYQQKPGQPPKLLIYWASTRESGVPDRFSGSGSGTDFTLTISSLQAEDVAVYFCQNNYYYPLTFGGGTKVEIK
unitString: µg/mL
EC50: 0.148
